Source of measurements: paper PMC5540273

system: CDKL1; details: concentration: 1 μM, replicates: in singlicate; n = 1;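 further: KINOMEscan kinase panel screen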
measured.metric: %Inh
Please answer using the number first and the unit second.

Guide cases for %Inh, answers given:
1. COc1cc(Nc2nccc(N3CCC(NC(=O)C(C)c4ccc(Cl)cc4)C3)n2)cc(OC)c1OC (stereo not drawn) : 9%
2. Nc1nccc2scc(-c3ccc4c(c3)CCN4C(=O)Cc3ccccc3)c12 : 7%
3. O=C(Nc1n[nH]c2cc(-c3ccccc3F)ccc12)C1CC1 : 11%
4. Fc1cccc(CSc2nnc(-c3ccc4c(c3)CCO4)o2)c1 : 3%
5. Nc1ncnc2c1ncn2-c1ccc(Cl)cc1 : 0%

Now look at this entry.
Prompt line: Tell me the measured %Inh of `COc1cc2ncn(-c3cc(OCc4ccncc4Br)c(C(N)=O)s3)c2cc1OC` , please.
Response line: 14%

###

This section presents compounds with their documented %Inh values.
tested on: MERTK; conditions: concentration: 1 μM, replicates: in singlicate; n = 1
Output spec: scalar in %, unitless text.

Consider the following illustrative entries.
1) Cc1cccc(-c2cc(-c3c[nH]nc3-c3ccccn3)ccn2)c1 : 12
2) COc1cc(OC)cc(-c2cc3cnc(N)nc3nc2NC(=O)NC(C)(C)C)c1 : 0
3) CCCNC(=O)Nc1ccc(Oc2ncnc3ccn(C)c23)cc1 : 13

Prompt line: Form field: reported %Inh of `Cc1c(Cn2c(C)nn3c(=O)cc(N4CCO[C@H](C)C4)nc23)cccc1C(F)(F)F`
Response line: 14

Prompt line: Look up %Inh for this compound: `Nc1ncnc2c1ncn2-c1ccc(Cl)cc1`
Response line: 10

Prompt line: Reported %Inh for `CN1C(=O)C(Nc2cc(Cl)c(O)c(Cl)c2)=C(c2ccc(Cl)cc2)C1=O` : what is it?
Response line: 30

Prompt line: Form field: reported %Inh of `CN(C)c1cc(-c2ccc3c(N)n[nH]c3c2)nc(N)n1`
Response line: 21

###

Below, each entry is listed alongside its reported %Inh.
system: CAMK1B; details: concentration: 1 μM, replicates: in singlicate; n = 1

// below: answered compounds
1. O=C(Nc1n[nH]c2nc(-c3ccccc3)c(Cl)cc12)C1CC1 : 0%
2. COc1ccc(-c2cc3c(C)nc(N)nc3n([C@H]3CC[C@H](OCCO)CC3)c2=O)cn1 : 7%
3. COc1cccc(-n2cnc3c(N)ncnc32)c1 : 20%
4. O=C(Nc1n[nH]c2nc(-c3ccccc3)c(Br)cc12)C1CC1 : 26%
5. O=C(NCCNc1ccnc(Nc2ccc(F)cc2)n1)Nc1ccc2c(c1)OCO2 : 0%

Prompt line: // query %Inh value for entry `CCCNC(=O)Nc1ccc(Oc2ncnc3ccn(C)c23)cc1`
Response line: 0%

Prompt line: State the recorded %Inh for this entry: COc1ccc(CNC(=O)NC2CCN(c3ccnc(Nc4ccc(F)cc4)n3)C2)cc1 (stereo not drawn)
Response line: 0%

Prompt line: Fill in the blank: the reported %Inh of `C[C@@H]1CC[C@H](C(=O)NC2CCCCC2)CN1c1cc(-c2ccc3c(N)n[nH]c3c2)nc(N)n1` is ____.
Response line: 2%

Prompt line: // lookup %Inh for `Cl.c1ccc(Cn2cnc3cc(Nc4ncnc5ccccc45)ccc32)cc1`
Response line: 31%

###

compounds and their reported %Inh
system: FGFR2; details: concentration: 1 μM, replicates: in singlicate; n = 1
Output spec: scalar in %, unitless text.

Worked examples, 4 compounds total:
1) Cc1cc(Nc2nc(-c3cccc(C)n3)nc3ccccc23)ccn1 [GW872411] : 0
2) COC(=O)c1c(-c2ccccc2)c2cc(Br)ccc2c(=O)n1Cc1ccc(NC(=O)CCC(=O)O)cc1 : 0
3) Nc1ncnc2c1ncn2-c1cccc(F)c1 [SKF-97560] : 12
4) Cn1c(=O)c(F)c(Nc2ccc(I)cc2F)c2c(=O)n(OC[C@H](O)CO)cnc21 : 4

Prompt line: Reported %Inh, compound `COc1ccc(-c2cc3c(C)nc(N)nc3n([C@H]3CC[C@H](O)CC3)c2=O)cn1` : ____
Response line: 0

Prompt line: Consider the compound shown here: CN1C(=O)C(Nc2cc(Cl)c(O)c(Cl)c2)=C(c2ccc(Cl)cc2)C1=O [SB-404321] What is its recorded %Inh?
Response line: 0

Prompt line: What does the record list as %Inh for COc1cc2ncn(-c3cc(OCCCc4ccccc4)c(C(N)=O)s3)c2cc1OC [GSK205189] ?
Response line: 9

Prompt line: # get_value(readout='%Inh', item= COc1cc(Nc2ccnc3ccc(C(F)(F)F)cc23)cc(OC)c1OC [GW577382] )
Response line: 25

Prompt line: Look up %Inh: OCCCNc1nccc(-c2c(-c3cccc(C(F)(F)F)c3)nn3cc(C(F)(F)F)ccc23)n1 [GW630813]
Response line: 0
